Data credit: patent US20230265151A1

Target: T1, human GIP receptor (human, UniProt P48546 22-466)
T1 sequence (looked up): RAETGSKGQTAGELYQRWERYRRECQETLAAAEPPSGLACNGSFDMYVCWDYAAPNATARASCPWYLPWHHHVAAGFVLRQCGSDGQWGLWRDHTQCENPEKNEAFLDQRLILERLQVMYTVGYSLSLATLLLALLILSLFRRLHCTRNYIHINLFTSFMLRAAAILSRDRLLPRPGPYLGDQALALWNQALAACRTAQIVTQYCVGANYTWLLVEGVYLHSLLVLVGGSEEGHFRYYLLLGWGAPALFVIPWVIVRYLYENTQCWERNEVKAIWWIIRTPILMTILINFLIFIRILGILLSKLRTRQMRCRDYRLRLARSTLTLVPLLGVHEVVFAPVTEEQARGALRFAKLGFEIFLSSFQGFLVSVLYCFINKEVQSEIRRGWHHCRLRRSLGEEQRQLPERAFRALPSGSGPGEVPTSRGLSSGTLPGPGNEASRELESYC
Assay: cell-based or functional assay
Where no end group is shown, it is not given here. Side-chain parts run from the residue outwards. [ ]: non-standard residue; d: D form. The star is where a group is joined. αMePhe(2-F) = C[C@](N)(Cc1ccccc1F)C(=O)O; C14 diacid = O=C(O)CCCCCCCCCCCCC(=O)*; αMeY = C[C@](N)(Cc1ccc(O)cc1)C(=O)O; αMeL = CC(C)C[C@](C)(N)C(=O)O; Orn = NCCC[C@H](N)C(=O)O; AEEA = NCCOCCOCC(=O)O; Aib = CC(C)(N)C(=O)O

BINDER: Y[Aib]EGT[αMePhe(2-F)]TSDV[Aib]I[αMeL]LD[Orn]K([AEEA-AEEA-C14 diacid])AQ[Aib]EFI[dE][αMeY]LIK([AEEA-AEEA-C14 diacid])GGPSSGAPPPS-NH2 [Example 389]
cAMP EC50 (1.0% HSA) [nM]: 1.5

BINDER: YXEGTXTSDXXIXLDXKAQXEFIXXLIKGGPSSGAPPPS (Y-Aib-EGT-αMeF(2F)-TSD-4Pal-Aib-I-αMeL-LD-Orn-K((2-[2-(2-Amino-ethoxy)-ethoxy]-acetyl)2-(γ-Glu)-CO-(CH2)12-CO2H)AQ-Aib-EFI-(D-Glu)-αMeY-LIK((2-[2-(2-Amino-ethoxy)-ethoxy]-acetyl)2-(γ-Glu)-CO-(CH2)12-CO2H)GGPSSGAPPPS-NH2) [Example 358]
cAMP EC50 (1.0% HSA) [nM]: 2.06

BINDER: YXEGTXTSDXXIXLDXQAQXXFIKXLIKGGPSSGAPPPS (Y-Aib-EGT-αMeF(2F)-TSD-4Pal-Aib-I-αMeL-LD-Orn-QAQ-Aib-Orn-FIK(Aoc-(2-[2-(2-Amino-ethoxy)-ethoxy]-acetyl)-(γ-Glu)-(10-(4-carboxyphenoxy)decanoyl))-αMeY-LIK(Aoc-(2-[2-(2-Amino-ethoxy)-ethoxy]-acetyl)-(γ-Glu)-(10-(4-carboxyphenoxy)decanoyl))GGPSSGAPPPS-NH2) [Example 456]
cAMP EC50 (1.0% HSA) [nM]: 0.878

BINDER: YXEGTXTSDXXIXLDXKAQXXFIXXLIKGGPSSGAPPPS (Y-Aib-EGT-αMeF(2F)-TSD-4Pal-Aib-I-αMeL-LD-Orn-K((2-[2-(2-Amino-ethoxy)-ethoxy]-acetyl)3-(γ-Glu)-CO-(CH2)10-CH3)AQ-Aib-Orn-FI-(D-Glu)-αMeY-LIK((2-[2-(2-Amino-ethoxy)-ethoxy]-acetyl)3-(γ-Glu)-CO-(CH2)10-CH3)GGPSSGAPPPS-NH2) [Example 434]
cAMP EC50 (1.0% HSA) [nM]: 0.0994

BINDER: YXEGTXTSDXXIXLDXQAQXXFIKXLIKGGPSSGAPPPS (not fully specified; Y-Aib-EGT-αMeF(2F)-TSD-4Pal-Aib-I-αMeL-LD-Orn-QAQ-Aib-Orn-FIK((2-[2-(2-Amino-ethoxy)-ethoxy]10-(4-carboxyphenoxy)decanoyl))-αMeY-LIK((2-[2-(2-Amino-ethoxy)-ethoxy]-acetyl)-Aoc-(γ-Glu)-(10-(4-carboxyphenoxy)decanoyl))GGPSSGAPPPS-NH2) [Example 454]
cAMP EC50 (1.0% HSA) [nM]: 1.3
